target: human IL-17AA (Homo sapiens); experiment: IL-8 release assay in human epithelial keratinocytes adult (HEKa); details: 3 ng/ml human IL-17AA + 10 ng/ml human TNFalpha, 68-72 h, IL-8 by HTRF, read-out: Rel EC50 L-8 release assay
pEC50: −log10 of the molar value.
parameter_measured: pEC50

Observe how each entry below is paired with its result.
{"molecule": "CC(C)n1cc(-c2ccc(Cl)c(C[C@H](NC(=O)C3CC(F)(F)C3)C(=O)Nc3ccc(-c4nncn4C)cc3)c2)ccc1=O", "parameter_measured": "pEC50", "result": "< 6.00"}
{"molecule": "Cn1cnnc1-c1ccc(NC(=O)C(Cc2cc(-c3ccc(O)c(C4=NCCCO4)c3)ccc2Cl)NC(=O)c2ccnn2C)cc1 (stereo not drawn)", "parameter_measured": "pEC50", "result": "6.00 to 7.00"}
{"molecule": "CC(C)n1cc(-c2ccc(Cl)c(CC(NC(=O)c3conc3C(C)(C)C)C(=O)Nc3ccc(-c4nncn4C)cc3)c2)ccc1=O (stereo not drawn)", "parameter_measured": "pEC50", "result": "6.00 to 7.00"}
{"molecule": "Cc1nccn1-c1ccc(NC(=O)[C@H](Cc2cc(-c3ccnc(C(O)C4CC4)c3)ccc2Cl)NC(=O)C2(F)CC2)cc1 (stereo partly drawn)", "parameter_measured": "pEC50", "result": "6.00 to 7.00"}
{"molecule": "Cc1cnn(C)c1-c1ccc(NC(=O)[C@@H](NC(=O)C2(F)CC2)[C@@H](c2cccc(-c3cc(N4C[C@@H]5C[C@H]4CO5)ncn3)c2)C2CC2)cc1", "parameter_measured": "pEC50", "result": "6.00 to 7.00"}
{"molecule": "Cc1n[nH]c(C)c1-c1ccc(NC(=O)[C@@H](NC(=O)C2(F)CC2)[C@@H]2CCc3ccc(-c4ccnc(N5CC6(COC6)C5)c4)cc32)cc1", "parameter_measured": "pEC50", "result": "> 7.00"}
{"molecule": "Cc1nc(-c2ccc3c(c2)[C@H]([C@H](NC(=O)C2(F)CC2)C(=O)Nc2ccc(-c4c(C)n[nH]c4C)cc2)CC3)cc(N2C[C@@H]3C[C@H]2CO3)n1", "parameter_measured": "pEC50", "result": "6.00 to 7.00"}
{"molecule": "Cc1nocc1C(=O)N[C@@H](Cc1cc(-c2ccnc(C(O)C(C)(C)C)c2)ccc1Cl)C(=O)Nc1ccc(-c2nncn2C)cc1 (stereo partly drawn)", "parameter_measured": "pEC50", "result": "6.00 to 7.00"}

Attention now turns to another entry.
For Cc1n[nH]c(C)c1-c1ccc(NC(=O)[C@@H](NC(=O)c2ccnn2C)[C@@H]2CCc3ccc(-c4cnn(C(C)(C)C)c4)cc32)cc1 on human IL-17AA (Homo sapiens), measured pEC50 was > 7.00

----------
molecular target: human IL-17AA (Homo sapiens, UniProt Q16552); experiment: IL-8 release assay in human epithelial keratinocytes adult (HEKa); details: 3 ng/ml human IL-17AA + 10 ng/ml human TNFalpha, 68-72 h, IL-8 by HTRF, read-out: Rel EC50 L-8 release assay
Sequence (Q16552 24-155): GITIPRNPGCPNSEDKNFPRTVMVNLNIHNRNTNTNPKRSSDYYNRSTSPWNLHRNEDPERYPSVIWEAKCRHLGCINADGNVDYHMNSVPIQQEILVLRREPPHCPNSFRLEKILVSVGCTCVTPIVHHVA
Sequence (Q16552 24-155): as above
parameter_measured: EC50

Observe how each entry below is paired with its result.
{"compound": "CC(C)n1cc(-c2ccc(Cl)c(C[C@H](NC(=O)C3CCC3)C(=O)Nc3ccc(-c4nncn4C)cc3)c2)ccc1=O [Example 293]", "EC50": "> 1000 nM"}
{"compound": "Cc1n[nH]c(C)c1-c1ccc(NC(=O)[C@@H](NC(=O)C2(F)CC2)[C@@H]2CCc3ccc(-c4ccnc(N5C[C@@H]6C[C@H]5CO6)n4)cc32)cc1 [Example 367]", "EC50": "< 100 nM"}
{"compound": "Cc1n[nH]c(C)c1-c1ccc(NC(=O)[C@H](Cc2cc(-c3ccnc(N4CC5COCC5C4)n3)ccc2Cl)NC(=O)C2(F)CC2)cc1 (stereo partly drawn) [Example 318]", "EC50": "< 100 nM"}
{"compound": "CN(C)C(=O)c1cc(-c2ccc(Cl)c(CC(NC(=O)c3ccnn3C)C(=O)Nc3ccc(-c4nncn4C)cc3)c2)ccc1O (stereo not drawn) [Example 167]", "EC50": "> 1000 nM"}
{"compound": "Cc1n[nH]c(C)c1-c1ccc(NC(=O)[C@@H](NC(=O)c2ccnn2C)[C@@H]2CCc3ccc(-c4ccc5c(c4)CN(C)C5)cc32)cc1 [Example 10]", "EC50": "< 100 nM"}
{"compound": "Cc1n[nH]c(C)c1-c1ccc(NC(=O)[C@@H](NC(=O)c2ccnn2C)[C@@H]2CCc3ccc(-c4cnn(C(C)(C)CO)c4)cc32)cc1 [Example 11]", "EC50": "< 100 nM"}
{"compound": "Cc1n[nH]c(C)c1-c1ccc(NC(=O)[C@@H](NC(=O)C2(F)CC2)[C@@H]2CCc3ccc(-c4cc(N5C[C@@H]6C[C@H]5CO6)ccn4)cc32)cc1 [Example 368]", "EC50": "100 to 1000 nM"}
{"compound": "Cc1n[nH]c(C)c1-c1ccc(NC(=O)[C@@H](NC(=O)C2(F)CC2)[C@@H]2CCCc3ccc(-c4ccnc(N5C[C@H]6C[C@@H]5CO6)c4)cc32)cc1 [Example 28]", "EC50": "< 100 nM"}
{"compound": "COc1cc(NC(=O)[C@H](Cc2cc(-c3ccc(=O)n(C(C)C)c3)ccc2Cl)NC(=O)c2conc2C)ccc1-c1ccnn1C [Example 70]", "EC50": "> 1000 nM"}
{"compound": "Cc1cnn(C)c1-c1ccc(NC(=O)[C@@H](NC(=O)c2ccnn2C)[C@@H]2CCc3ccc(-c4ccnc(C(C)C)n4)cc32)cc1 [Example 382]", "EC50": "100 to 1000 nM"}

For Cc1n[nH]c(C)c1-c1ccc(NC(=O)[C@@H](NC(=O)C2(F)CC2)C(C)c2cc(-c3ccc(=O)n(C(C)C)c3)ccc2Cl)cc1 (stereo partly drawn) [Example 51] on human IL-17AA (Homo sapiens, UniProt Q16552), measured EC50 was 100 to 1000 nM

For CC(C)n1cc(-c2ccc(Cl)c(C[C@H](NC(=O)O[C@H](C)C(F)(F)F)C(=O)Nc3ccc(-c4nncn4C)cc3)c2)ccc1=O [Example 286] on human IL-17AA (Homo sapiens, UniProt Q16552), measured EC50 was > 1000 nM

For Cc1ncn(C)c1-c1ccc(NC(=O)[C@H](Cc2cc(-c3ccnc(N4CCN(C)CC4)c3)ccc2Cl)NC(=O)c2ccnn2C)cc1 [Example 213] on human IL-17AA (Homo sapiens, UniProt Q16552), measured EC50 was 100 to 1000 nM

----------
molecular target: UniProt Q16552; assay: IL-8 release assay in human epithelial keratinocytes adult (HEKa); conditions: 3 ng/ml human IL-17AA + 10 ng/ml human TNFalpha, 68-72 h, IL-8 by HTRF, read-out: Rel EC50 L-8 release assay
pEC50: −log10 of the molar value.
parameter_measured: pEC50

Observe how each entry below is paired with its result.
{"molecule": "Cc1nn(C)c(C)c1-c1ccc(NC(=O)[C@@H](NC(=O)C2(F)CC2)[C@@H]2CCc3ccc(-c4ccnc(N5C[C@@H]6C[C@H]5CO6)c4)cc32)cc1 [Example 371]", "measured_target": "UniProt Q16552", "pEC50": "> 7.00"}
{"molecule": "Cc1n[nH]c(C)c1-c1ccc(NC(=O)[C@@H](NC(=O)c2ccnn2C)[C@@H]2CCc3ccc(-c4cnn(C5CCC5)c4)cc32)cc1 [Example 5]", "measured_target": "UniProt Q16552", "pEC50": "> 7.00"}

Attention now turns to another entry.
For COCOc1ccc(-c2ccc(Cl)c(CC(NC(=O)c3ccnn3C)C(=O)Nc3ccc(-c4nncn4C)cc3)c2)cc1C(=O)N(C)C (stereo not drawn) [Example 155] on UniProt Q16552, measured pEC50 was < 6.00

----------
Some molecules, each annotated with its measured pEC50.
target: human IL-17AA (Homo sapiens); construct: host or cells: HEK (human embryonic kidney) cells; assay: IL-8 release assay in human epithelial keratinocytes adult (HEKa); assay type: cell-based; details: 3 ng/ml human IL-17AA + 10 ng/ml human TNFalpha, 68-72 h, IL-8 by HTRF, read-out: Rel EC50 L-8 release assay
pEC50: −log10 of the molar value.

{"molecule": "Cc1n[nH]c(C)c1-c1ccc(NC(=O)[C@@H](NC(=O)c2ccnn2C)[C@@H]2CCc3ccc(-c4ccnc(C(C)C)c4)cc32)cc1 [Example 14]", "pEC50": "> 7.00"}
{"molecule": "Cc1n[nH]c(C)c1-c1ccc(NC(=O)[C@@H](NC(=O)C2(F)CC2)[C@@H]2CCCc3ccc(-c4cnn(C(F)F)c4)cc32)cc1 [Example 393]", "pEC50": "6.00 to 7.00"}
{"molecule": "CC(C)n1cc(-c2ccc3c(c2)[C@H]([C@H](NC(=O)c2ccnn2C)C(=O)Nc2ccc(-c4cncn4C)cc2)CC3)ccc1=O [Example 3]", "pEC50": "6.00 to 7.00"}
{"molecule": "CC(C)Cn1cc(-c2ccc(Cl)c(C[C@H](NC(=O)OC3CC3)C(=O)Nc3ccc(-c4cncn4C)cc3)c2)nn1 [Example 214]", "pEC50": "< 6.00"}
{"molecule": "Cc1n[nH]c(C)c1-c1ccc(NC(=O)[C@@H](NC(=O)C2(F)CC2)[C@@H]2CCCc3ccc(-c4ccnc(N5CCNCC5)c4)cc32)cc1 [Example 39]", "pEC50": "> 7.00"}

The molecule identified as Cc1nocc1C(=O)N[C@@H](Cc1cc(-c2ccnc(C(O)C3CC3)c2)ccc1Cl)C(=O)Nc1ccc(-c2cncn2C)cc1 (stereo partly shown) [Example 123] registered its pEC50 at > 7.00

The molecule identified as Cc1nocc1C(=O)NC(Cc1cc(-c2cccc(C(=O)N(C)C3CC3)c2)ccc1Cl)C(=O)Nc1ccc(-c2nncn2C)cc1 (stereo not shown) [Example 107] registered its pEC50 at 6.00 to 7.00
